- measurementTarget: T1, huFLT3-M227 stably expressed on Ramos cells (human, UniProt P36888 27-993)
- T1 construct: whole, on cells; also called FLT3 Mutant
- T1 sequence (P36888 27-993 T227M): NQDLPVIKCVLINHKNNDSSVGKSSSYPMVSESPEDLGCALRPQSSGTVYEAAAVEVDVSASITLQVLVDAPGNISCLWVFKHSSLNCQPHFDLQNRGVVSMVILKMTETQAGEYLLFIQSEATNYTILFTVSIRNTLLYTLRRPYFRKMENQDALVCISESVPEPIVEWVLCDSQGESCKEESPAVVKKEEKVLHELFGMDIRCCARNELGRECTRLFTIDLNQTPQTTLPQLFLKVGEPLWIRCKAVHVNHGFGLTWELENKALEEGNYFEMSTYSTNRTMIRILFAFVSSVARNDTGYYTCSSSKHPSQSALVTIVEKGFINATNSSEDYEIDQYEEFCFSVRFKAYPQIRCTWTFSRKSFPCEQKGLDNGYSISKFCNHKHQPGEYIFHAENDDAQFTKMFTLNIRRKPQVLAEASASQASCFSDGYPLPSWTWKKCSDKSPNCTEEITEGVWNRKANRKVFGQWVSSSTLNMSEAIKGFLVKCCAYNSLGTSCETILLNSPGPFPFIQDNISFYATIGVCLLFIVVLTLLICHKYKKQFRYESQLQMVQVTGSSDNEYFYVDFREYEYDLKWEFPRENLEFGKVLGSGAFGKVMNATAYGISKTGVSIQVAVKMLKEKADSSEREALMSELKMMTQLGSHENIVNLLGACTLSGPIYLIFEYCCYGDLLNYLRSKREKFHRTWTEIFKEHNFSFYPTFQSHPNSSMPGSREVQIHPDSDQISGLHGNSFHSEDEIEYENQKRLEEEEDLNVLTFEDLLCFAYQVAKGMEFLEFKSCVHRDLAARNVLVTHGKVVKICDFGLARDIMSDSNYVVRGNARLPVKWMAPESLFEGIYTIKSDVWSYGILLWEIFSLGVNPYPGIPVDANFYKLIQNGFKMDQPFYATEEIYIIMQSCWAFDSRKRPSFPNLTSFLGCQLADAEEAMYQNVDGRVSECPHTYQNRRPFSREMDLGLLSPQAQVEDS
- assayDetails: FACS on cells
We begin with a simple list: items and their reported FACS geometric mean fold change over Jurkat parental.
assayReadout: FACS geometric mean fold change over Jurkat parental

binder | recordedResult
Polypeptide No. 270 (scFv, V domains shown, scFv) VH: QVQLVQSGAEVKKPGASVKVSCKASGGTFSSYYMHWVRQAPGQGLEWMGWISAYNGNTNYAQKLQGRVTMTRDTSTSTVYMELSSLRSEDTAVYYCAKDMGYYYDSSGGFDYWGQGTLVTVSS VL: DIQMTQSPSSLSASVGDRVTITCRASQSISSYLNWYQQKPGKAPKLLIYDASNLETGVPSRFSGSGSGTDFTLTISSLQPEDFATYYCQQTYTTPLTFGQGTKVEIKR | 10 to 30 fold
Polypeptide No. 249 (scFv, V domains shown, scFv) VH: QVQLVQSGAEVKKPGASVKVSCKASGYTFTSDGISWVRQAPGQGLEWMGWMNPNSGNAGYAQKFQGRVTMTRDTSTSTVYMELSSLRSEDTAVYYCATAVAGTDAFDIWGQGTMVTVSS VL: EIVMTQSPATLSVSPGERATLSCRASQSIGNNLKAWYQQKPGQAPRLLIYDTSAHTTGIPARFSGSGSGTEFTLTISSLQSEDFAVYYCQHYGNSLTFGQGTKVEIK | 2 to 10 fold
Polypeptide No. 280 (scFv, V domains shown, scFv) VH: QVQLVQSGAEVKKPGASVKVSCKASGYTFTRYYMHWVRQAPGQGLEWMGIINPSGGSTSYAQKFQGRVTMTRDTSTSTVYMELSSLRSEDTAVYYCARGETRSYAPYGMDVWGQGTTVTVSS VL: DIQMTQSPSSLSASVGDRVTITCQASQDISNYLNWYQQKPGKAPKLLIYQASNKDTGVPSRFSGSGSGTDFTLTISSLQPEDFATYYCQQSYSTPPTFGQGTKLEIKR | > 30 fold
Polypeptide No. 224 (scFv, V domains shown, scFv) VH: QVQLVQSGAEVKKPGSSVKVSCKASGYTFTGYYMHWVRQAPGQGLEWMGVINPIYGTANYALKFQGRVTITADESTSTAYMELSSLRSEDTAVYYCAKAISSGWSNDAFDIWGQGTMVTVSS VL: EIVMTQSPATLSVSPGERATLSCRASQSVSSDFLAWYQQKPGQAPRLLIYDTSSRASGIPARFSGSGSGTEFTLTISSLQSEDFAVYYCQQYAGPPTFGQGTRLEIKR | 2 to 10 fold
Polypeptide No. 288 (scFv, V domains shown, scFv) VH: QVQLVQSGAEVKKPGASVKVSCKASGYTFTTYDINWVRQAPGQGLEWMGWMNPSSGNSGFAQQFQGRVTMTRDTSTSTVYMELSSLRSEDTAVYYCAREDYYDSSGYYNWGQGTLVTVSS VL: DIQMTQSPSSLSASVGDRVTITCRASQGISNNLNWYQQKPGKAPKLLIYKASTLESGVPSRFSGSGSGTDFTLTISSLQPEDFATYYCQQSYSTPITFGQGTKVEIKR | 10 to 30 fold
